- Test system: Bacillus subtilis DB104 (SP-AmyQ fusion secretion)
- procedureText: AmyQ secretion efficiency, weighted average sort bin (1 = best secretion, 10 = worst) (bin number (weighted average, 1-10)); higher = lower secretion efficiency
Examples of sequences with documented AmyQ secretion efficiency follow.
testReadout: AmyQ secretion efficiency

MKKRFSLIMMTGLLFGLTSPAFAADE ... 3.46
MRKYTVIASILLSFLSVLDEDDEDHHESKAFPV ... 5.95
MTRLLSTLLIGIMLLTFAPSAFAKQD ... 1.6
MGLGKKLSVAVAASFMSLSISLPGVQAAPG ... 2.04
MKFVKRRIIALVTILMLSVTSLFALQPSFTPSPFFTVAKAAEH ... 2.95
MKNMSCKLVVSVTLFFSFLTIGPLAHSQNS ... 2.01
MRSYIKVLTMCFLGLILFVFTALADNS ... 7.29
MGLGKKLSVAVAASFMSLSISLPGAVGPGFPTFPSVQAAEG ... 1.21
MKKGIIRFLLVSFVLFFALSTGITGVQAARK ... 2.85
MKRMIVRMTKRKRRRCLAFSSFSASARAASE ... 8.6
MLKKKWMVGLLAGCLAAGGFSYNSPPFFFGAAFATEN ... 5.86
MKKSQYFIVFICFFVLFSVHPIAAAEADS ... 3.09
MMKKLFHSTLIVLLFFSFFGVKRKIHAKKQ ... 3.3
MSSGTVIASILLSFLSVLSGGHHESKAFPV ... 6.28
MKLSVKIAGVLTVAAAAMTAKMYATPKGN ... 5.67
MKKWIYVVLVLSIAGIGGISVSAFSVHAASS ... 5.09
MLKKIALTLCPAIVGSLLFFTAPHSAHVS ... 5.59
MKLRKVLTGSVLSLGLLVSASPNFATSP ... 5.36
MLKKKWMVGLLAGCLAAGGFSYNAFWTEN ... 6.56
MKKGIIRFLLVSFVLFFALSTGITGVQRAPA ... 4.88
MNLWMRKTLVVLFTIVTFGLVSPPAALMADKP ... 2.15
MKKRITYSLLALLAVVAFAFFSIAGAKAAEA ... 4.27
MRPVFPLILSAVLFLSCFTGARQTEASASKR ... 3.07
MKKQWIGMLAAAVLLLMVPKVSLADAA ... 2.86
MGSTGSIMFACLILFSFTITTFINTETISAFSN ... 4.71
MMMWLIIAVSLAIAIVLFMYTKGEAKAAGM ... 6.9
MKSKWMSGLLLVAVGFSFIALFATQVMVHAGET ... 7.59
MFNRLFRVCFLAALIMAFTLPNSFYAQKP ... 6.02
MRKKRVITCVMAASLTLGSLLPAGYASFKED ... 3.82
MRGKSAVLLSLIMLIAGFLQQSFSFQM ... 7.38
